# systemTested: HLA-A*02:01 (Homo sapiens, UniProt P04439, D140Y/D185E/D98H/E176V/E277Q/G131W/G231S/I119V/I121R/I166T/I218V/L300P/L318F/N151K/N90K/P208A/P217A/Q86G/Q94H/R138H/R169H/T345S)
# assayText: MHC binding assay (UV-ligand exchange, beta2m ELISA, peptide exchange yield)
# recordedConditions: binding of HLA-class I restricted peptides to HLA-A*02:01, ranged by peptide exchange yield (UV-ligand exchange, β2m ELISA)
measurementName: Peptide exchange

Exercise: Fill blank: measured Peptide exchange of the substance 498 (KLWTGGLDNTV; listed as Homo sapiens) [compound 498] is ____.
Solution: ″+++″ (≥50% = +++)

Exercise: Fill blank: measured Peptide exchange of the substance 176 (YLMEGSYNKVFL; listed as Homo sapiens) [compound 176] is ____.
Solution: ″++″ (≥20% = ++)

Exercise: Fill blank: measured Peptide exchange of the substance 438 (KLLPLAGLYL; listed as Homo sapiens) [compound 438] is ____.
Solution: ″++++″ (≥75% = ++++)

Exercise: Fill blank: measured Peptide exchange of the substance 434 (KVSNSGITRV; listed as Homo sapiens) [compound 434] is ____.
Solution: ″++″ (≥20% = ++)

Further cases:
Exercise: Fill blank: measured Peptide exchange of the substance 296 (FMEGAIIYV; listed as Homo sapiens) [compound 296] is ____.
Solution: ″+++″ (≥50% = +++)

Exercise: Fill blank: measured Peptide exchange of the substance 383 (ALLELENSVTL; listed as Homo sapiens) [compound 383] is ____.
Solution: ″+++″ (≥50% = +++)

Exercise: Fill blank: measured Peptide exchange of the substance 113 (GLLPTPLFGV; listed as Homo sapiens) [compound 113] is ____.
Solution: ″+++″ (≥50% = +++)

Exercise: Fill blank: measured Peptide exchange of the substance 601 (SAFPFPVTV; listed as Homo sapiens) [compound 601] is ____.
Solution: ″+++″ (≥50% = +++)

Exercise: Fill blank: measured Peptide exchange of the substance 450 (FMIDASVHPTL; listed as Homo sapiens) [compound 450] is ____.
Solution: ″+++″ (≥50% = +++)

Exercise: Fill blank: measured Peptide exchange of the substance 348 (ILLDVKTRL; listed as Homo sapiens) [compound 348] is ____.
Solution: ″++++″ (≥75% = ++++)

Exercise: Fill blank: measured Peptide exchange of the substance 122 (FLLAEDDIYL; listed as Homo sapiens) [compound 122] is ____.
Solution: ″+++″ (≥50% = +++)

Exercise: Fill blank: measured Peptide exchange of the substance 603 (FLIEPEHVNTV; listed as Homo sapiens) [compound 603] is ____.
Solution: ″++″ (≥20% = ++)

Exercise: Fill blank: measured Peptide exchange of the substance 227 (ALMNTLLYL; listed as Homo sapiens) [compound 227] is ____.
Solution: ″++″ (≥20% = ++)

----------
# systemTested: HLA-A*02:01 (Homo sapiens, UniProt P04439, D140Y/D185E/D98H/E176V/E277Q/G131W/G231S/I119V/I121R/I166T/I218V/L300P/L318F/N151K/N90K/P208A/P217A/Q86G/Q94H/R138H/R169H/T345S)
# assayText: MHC binding assay (UV-ligand exchange, beta2m ELISA, peptide exchange yield)
# recordedConditions: binding of HLA-class I restricted peptides to HLA-A*02:01, ranged by peptide exchange yield (UV-ligand exchange, β2m ELISA)
measurementName: Peptide exchange

Consider the worked cases shown below.
Exercise: Fill blank: measured Peptide exchange of the substance 318 (GLINTGVLSV; listed as Homo sapiens) [compound 318] is ____.
Solution: ″++″ (≥20% = ++)

Exercise: Fill blank: measured Peptide exchange of the substance 335 (YSLSSVVTV; listed as Homo sapiens) [compound 335] is ____.
Solution: ″+++″ (≥50% = +++)

Exercise: Fill blank: measured Peptide exchange of the substance 12 (SLWPDPMEV; listed as Homo sapiens) [compound 12] is ____.
Solution: ″+++″ (≥50% = +++)

Exercise: Fill blank: measured Peptide exchange of the substance 617 (ALMYESEKVGV; listed as Homo sapiens) [compound 617] is ____.
Solution: ″+++″ (≥50% = +++)

Further cases:
Exercise: Fill blank: measured Peptide exchange of the substance 205 (SLYPGTETMGL; listed as Homo sapiens) [compound 205] is ____.
Solution: ″+++″ (≥50% = +++)

Exercise: Fill blank: measured Peptide exchange of the substance 84 (VTFGEKLLGV; listed as Homo sapiens) [compound 84] is ____.
Solution: ″++″ (≥20% = ++)

Exercise: Fill blank: measured Peptide exchange of the substance 437 (SMAPGLVIQAV; listed as Homo sapiens) [compound 437] is ____.
Solution: ″+++″ (≥50% = +++)

The reported numbers originate from patent US10253076B2.
